- Test system: OVCAR-4 ovarian
- Measurement Protocol: NCI-60 one-dose screen, 48 h (100 = growth as untreated, 0 = no growth, -100 = all killed)
- Stated Conditions: 10 µM unless noted
About 83,000 compounds went through this panel and 20% of them were active in at least one assay; those are over-represented in the sample as a whole.
Measure Name: growth (%)
Dear colleague, please return just the value in %, with no unit written.

In [3]: df
Out[3]:
                                   compound   assayed_system  measured_value
0  CCOC(=O)c1cn2ncnc(Oc3ccc(NC(=O)NCCN4CCN(C)CC4)c(Cl)c3)c2c1C  OVCAR-4 ovarian            72.3
1  Cn1cc(C(=O)c2nc(-c3cn(C)c4ccc(F)cc34)no2)c2cc(F)ccc21  OVCAR-4 ovarian            90.8
2            O=c1[nH][n+](-c2ccc(Br)cc2)no1  OVCAR-4 ovarian            57.9
3    COc1ccc2sc3c(NCCO)nc4ccccc4c3c(=O)c2c1  OVCAR-4 ovarian             114

Q: Name the reported growth value associated with the compound COc1cc(CCCO)c(OC)c(OC)c1OC
A: 102

Q: Now the compound Cc1nc(NC(=O)COc2ccc(/C=C3\Cc4ccc(Cl)cc4C3=O)cc2)sc1C
A: 113

Q: Now the compound COc1cc(C(=O)c2cc(C)c3[nH]c4ccc(O)cc4c3c2C)cc(OC)c1OC
A: 48.3

Q: Now the compound CCCCCCCCCCCCCCCCCCOc1ccc(CC(=O)OCC[N+](C)(C)C)cc1
A: 97.3

Q: Now the compound NS(=O)(=O)c1ccc(N=Nc2ccc(-c3nn4cc(-c5ccccc5)nc4s3)cc2)cc1
A: 99.7

Q: Now the compound CCCCCCCCCCCCCCCCCC1OCC(COC(=O)O[C@]2(CC)C(=O)OCc3c2cc2n(c3=O)Cc3cc4ccccc4nc3-2)O1 (stereo not given in full)
A: 100
